Recorded measurements of EC50, one per entry
system: Hepatitis C virus; test: microbe, parasite or virus in culture; conditions: genotype 1b, Huh-7, 72 h
READOUT TYPE: EC50 (nM)

[
  {
    "RECORD SMILES": "CC(C)(C)CC[C@]1(C)CN(C2CCCC2)C(=O)C(C2=NS(=O)(=O)c3cc(NS(C)(=O)=O)ccc3N2)=C1O",
    "READOUT TYPE": "EC50",
    "PREFIX OPERATOR": "=",
    "NUMERIC READOUT": 310
  },
  {
    "RECORD SMILES": "C[C@@]1(Cc2ccc(F)cc2)CN(C2CCCC2)C(=O)C(C2=NS(=O)(=O)c3cc(NS(C)(=O)=O)ccc3N2)=C1O",
    "READOUT TYPE": "EC50",
    "PREFIX OPERATOR": "=",
    "NUMERIC READOUT": 14000
  },
  {
    "RECORD SMILES": "CC1(C)CN(Cc2ccc(F)cc2)C(=O)C(C2=NS(=O)(=O)c3cc(NS(C)(=O)=O)ccc3N2)=C1O",
    "READOUT TYPE": "EC50",
    "PREFIX OPERATOR": "=",
    "NUMERIC READOUT": 1300
  },
  {
    "RECORD SMILES": "CCCC[C@]1(C)CN(C2CCC2)C(=O)C(C2=NS(=O)(=O)c3cc(NS(C)(=O)=O)ccc3N2)=C1O",
    "READOUT TYPE": "EC50",
    "PREFIX OPERATOR": ">",
    "NUMERIC READOUT": 10000
  }
]
